From: ChEMBL document CHEMBL3991601

Test System: Dual specificity mitogen-activated protein kinase kinase 5 (Homo sapiens); note: in the data inactive means no Kd found up to 30 µM
Sequence (Q13163 whole entry): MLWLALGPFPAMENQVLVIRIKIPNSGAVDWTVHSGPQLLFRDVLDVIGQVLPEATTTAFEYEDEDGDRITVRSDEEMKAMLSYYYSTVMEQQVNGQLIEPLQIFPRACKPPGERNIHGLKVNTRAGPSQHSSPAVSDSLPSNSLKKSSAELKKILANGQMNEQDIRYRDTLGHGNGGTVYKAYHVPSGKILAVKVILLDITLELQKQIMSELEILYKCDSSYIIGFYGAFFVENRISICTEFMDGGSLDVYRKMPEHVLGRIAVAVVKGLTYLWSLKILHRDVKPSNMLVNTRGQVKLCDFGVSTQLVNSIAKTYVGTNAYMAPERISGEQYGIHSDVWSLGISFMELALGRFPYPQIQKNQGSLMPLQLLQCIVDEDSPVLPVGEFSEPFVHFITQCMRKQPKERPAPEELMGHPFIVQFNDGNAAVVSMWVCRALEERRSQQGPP
Active and inactive are the calls of the source.
Pick from YES = active, NO = inactive when you respond.

Use these answered entries as a reference point.
Compound: Cc1nc(N)sc1-c1ccnc(Nc2ccc(N3CCOCC3)cc2)n1
Test System: Dual specificity mitogen-activated protein kinase kinase 5 (Homo sapiens); note: in the data inactive means no Kd found up to 30 µM
Label: YES
--
Compound: N[C@@H]1CCCN(c2c(/C=C3\SC(=O)NC3=O)cccc2-c2ccccc2)C1
Test System: Dual specificity mitogen-activated protein kinase kinase 5 (Homo sapiens); note: in the data inactive means no Kd found up to 30 µM
Label: NO
--
Compound: Cc1ccc(NC(=O)c2ccc(CN3CC[C@H](N(C)C)C3)c(C(F)(F)F)c2)cc1Nc1nccc(-c2cncnc2)n1
Test System: Dual specificity mitogen-activated protein kinase kinase 5 (Homo sapiens); note: in the data inactive means no Kd found up to 30 µM
Label: YES
--
Compound: CN1CCC(COc2cnc(-c3cccc(Cn4nc(-c5cccc(C#N)c5)ccc4=O)c3)nc2)CC1
Test System: Dual specificity mitogen-activated protein kinase kinase 5 (Homo sapiens); note: in the data inactive means no Kd found up to 30 µM
Label: NO
--
Compound: Cn1cc(-c2ccc(F)c(C(F)(F)F)c2)nc1C1CCN(c2ncnc3[nH]ncc23)CC1
Test System: Dual specificity mitogen-activated protein kinase kinase 5 (Homo sapiens); note: in the data inactive means no Kd found up to 30 µM
Label: NO
--
Compound: Cc1c(F)cc(C(=O)NC2CC2)cc1-c1ccc(C(=O)NCC(C)(C)C)cn1
Test System: Dual specificity mitogen-activated protein kinase kinase 5 (Homo sapiens); note: in the data inactive means no Kd found up to 30 µM
Label: NO
--
Compound: Cn1cc(-c2ccc3nnc(C(F)(F)c4ccc5ncccc5c4)n3n2)cn1
Test System: Dual specificity mitogen-activated protein kinase kinase 5 (Homo sapiens); note: in the data inactive means no Kd found up to 30 µM
Label: NO
--
Compound: CN1CC[C@@H](c2c(O)cc(O)c3c(=O)cc(-c4ccccc4Cl)oc23)[C@@H]1CO
Test System: Dual specificity mitogen-activated protein kinase kinase 5 (Homo sapiens); note: in the data inactive means no Kd found up to 30 µM
Label: NO

**Query** Called result for Cc1ccc(S(=O)(=O)Nc2nc3ccccc3nc2Nc2ccc3nsnc3c2)cc1
**Result** NO

**Query** # lookup: test call for CNC(=O)c1ccc(-c2cnc3ncc(Cc4ccc5ncccc5c4)n3n2)cc1F
**Result** NO

**Query** Can you look up the reported call for CN1N=C(N)c2cn([C@@H]3O[C@H](COP(=O)(O)O)[C@@H](O)[C@H]3O)c3ncnc1c23 [TRICIRIBINE PHOSPHATE] for me?
**Result** NO

**Query** Please state the recorded outcome for this compound: O=C(c1ccc(F)c(F)c1Nc1ccc(I)cc1F)N1CC(O)([C@@H]2CCCCN2)C1
**Result** NO

**Query** Write down the call the test reported for this compound. Item: O=c1sn(-c2cccc3ccccc23)c(=O)n1Cc1ccccc1
**Result** NO

---

Test System: Protein kinase C beta type (Homo sapiens); note: in the data inactive means no Kd found up to 30 µM
Sequence (P05771 whole entry): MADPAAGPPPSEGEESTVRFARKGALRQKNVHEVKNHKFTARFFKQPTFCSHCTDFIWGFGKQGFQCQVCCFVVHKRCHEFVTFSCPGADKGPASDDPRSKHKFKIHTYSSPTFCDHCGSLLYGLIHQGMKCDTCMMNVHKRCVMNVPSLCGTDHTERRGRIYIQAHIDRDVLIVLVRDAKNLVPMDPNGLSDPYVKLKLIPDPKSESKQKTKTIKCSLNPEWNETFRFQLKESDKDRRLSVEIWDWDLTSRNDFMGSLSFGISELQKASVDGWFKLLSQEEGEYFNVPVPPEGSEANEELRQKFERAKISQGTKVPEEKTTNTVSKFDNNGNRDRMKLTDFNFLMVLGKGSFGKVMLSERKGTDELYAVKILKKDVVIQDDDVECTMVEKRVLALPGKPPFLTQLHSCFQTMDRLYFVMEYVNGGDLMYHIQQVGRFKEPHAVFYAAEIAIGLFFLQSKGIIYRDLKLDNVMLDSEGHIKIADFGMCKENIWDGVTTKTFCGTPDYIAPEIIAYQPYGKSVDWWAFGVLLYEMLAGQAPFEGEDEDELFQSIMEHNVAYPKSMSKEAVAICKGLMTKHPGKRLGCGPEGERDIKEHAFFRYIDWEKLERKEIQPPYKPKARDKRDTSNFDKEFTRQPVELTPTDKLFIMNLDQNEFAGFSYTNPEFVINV
Calls of active or inactive are those of the source.
# valid calls are active, inactive; nothing else

**Query** // param item: Cn1ncc(Cl)c1-c1cc(C(=O)N[C@H](CN)Cc2cccc(F)c2)sc1Cl [AFURESERTIB] ; yields the recorded call
**Result** active

**Query** // outcome(item) with item = CC(C)Nc1cc(-c2c[nH]c(C(=O)N[C@H](CO)c3cccc(Cl)c3)c2)c(Cl)cn1 [ULIXERTINIB]
**Result** inactive

**Query** Recorded test outcome, item Cc1cc2c(F)c(Oc3ncnn4cc(OC[C@@H](C)OC(=O)[C@H](C)N)c(C)c34)ccc2[nH]1 [BRIVANIB ALANINATE]
**Result** inactive

**Query** Hi, do you know how Cc1nc(N)sc1-c1ccnc(Nc2ccc(N3CCOCC3)cc2)n1 [CYC-116] came out in this test?
**Result** inactive
